- Measured on: T1, CH2-4 constant domains of human IgE linked to a transmembrane protein, on 293 cells (human, UniProt P01854-1 104-428)
- T1 construct: domain: CH2-4 constant domains; also called human IgE-expressing 293 cells
- Test name: flow cytometry, 293 cells expressing human IgE CH2-4
Measured parameter: Bmax (MFI)
Numbers only, in MFI.

The examples below pair each entry with its known result.
B10-NNT (Fc fusion, monomeric; also called parental B10 monomeric VHH-hIgG1-Fc fusion (Fc NNT)) VHH-Fc: EVQLVQSGGELVQAGGSLRLSCVASGLTFSSYNMGWLRQAPGKEREFVGMSGSSSTSTYYADSVKGRFTISRDNSKNTVYLQMNSLKPEDTAVYYCAARRMLSTYWSDRSWDFWGQGTQVTVKPGGPSVFLFPPKPKDTLMISRTPEVTCVVVDVSHEDPEVKFNWYVDGVEVHNAKTKPREEQYNSTYRVVSVLTVLHQDWLNGKEYKCKVSNKALPAPIEKTISKAKGQPREPQVYTLPPSRDELTKNQVNLTCLVKGFYPSDIAVEWESNGQPENNYKTTPPVLDSDGSFFLNSTLTVDKSRWQQGNVFSCSVMHEALHNHYTQKSLSLSPGK
866000
hzB10v31-NNT (Fc fusion, monomeric) VHH-Fc: EVQLLESGGGEVQPGGSLRLSCVASGLTFSSYNMGWLRQAPGKEREFVGLSGSSSTSTYYAESVKGRFTISRDNSKNTVYLQMNTLRAEDTAVYYCAARRLLSTYWSDRSWDFWGQGTQVTVEPGGPSVFLFPPKPKDTLMISRTPEVTCVVVDVSHEDPEVKFNWYVDGVEVHNAKTKPREEQYNSTYRVVSVLTVLHQDWLNGKEYKCKVSNKALPAPIEKTISKAKGQPREPQVYTLPPSRDELTKNQVNLTCLVKGFYPSDIAVEWESNGQPENNYKTTPPVLDSDGSFFLNSTLTVDKSRWQQGNVFSCSVMHEALHNHYTQKSLSLSPGK
575000
hzB10v29-NNT (Fc fusion, monomeric) VHH-Fc: EVQLLESGGGEVQPGGSLRLSCVASGLTFSSYNMGWLRQAPGKEREFVGLSGSSSTSTYYAESVKGRFTISRDNSKNTVYLQMQSLRAEDTAVYYCAARRLLSTYWSDRSWDFWGQGTQVTVEPGGPSVFLFPPKPKDTLMISRTPEVTCVVVDVSHEDPEVKFNWYVDGVEVHNAKTKPREEQYNSTYRVVSVLTVLHQDWLNGKEYKCKVSNKALPAPIEKTISKAKGQPREPQVYTLPPSRDELTKNQVNLTCLVKGFYPSDIAVEWESNGQPENNYKTTPPVLDSDGSFFLNSTLTVDKSRWQQGNVFSCSVMHEALHNHYTQKSLSLSPGK
605000

Now for another entry.
Given the binder hzB10v30-NNT (Fc fusion, monomeric) VHH-Fc: EVQLLESGGGEVQPGGSLRLSCVASGLTFSSYNMGWLRQAPGKEREFVGLSGSSSTSTYYAESVKGRFTISRDNSKNTVYLQMTSLRAEDTAVYYCAARRLLSTYWSDRSWDFWGQGTQVTVEPGGPSVFLFPPKPKDTLMISRTPEVTCVVVDVSHEDPEVKFNWYVDGVEVHNAKTKPREEQYNSTYRVVSVLTVLHQDWLNGKEYKCKVSNKALPAPIEKTISKAKGQPREPQVYTLPPSRDELTKNQVNLTCLVKGFYPSDIAVEWESNGQPENNYKTTPPVLDSDGSFFLNSTLTVDKSRWQQGNVFSCSVMHEALHNHYTQKSLSLSPGK , write its reported Bmax.
725000

The reported measurements were obtained from patent US20250163186A1.
